Details: in acetone, 324.65 K
Reported metric: solubility (mole fraction)
Give only the figure.

compound C[C@@H]1CC[C@@]2(OC1)O[C@H]1C[C@H]3[C@@H]4CC=C5C[C@@H](O)CC[C@]5(C)[C@H]4CC[C@]3(C)[C@H]1[C@@H]2C , solubility (mole fraction) observed: 0.00243

###

Conditions: in methanol, 319.65 K
Reported metric: solubility (mole fraction)
Give only the figure.

compound C[C@@H]1CC[C@@]2(OC1)O[C@H]1C[C@H]3[C@@H]4CC=C5C[C@@H](O)CC[C@]5(C)[C@H]4CC[C@]3(C)[C@H]1[C@@H]2C , solubility (mole fraction) observed: 0.0006
